- Assayed system: human orexin-2 receptor (Homo sapiens (Human), UniProt O43614)
- Sequence (O43614 whole entry): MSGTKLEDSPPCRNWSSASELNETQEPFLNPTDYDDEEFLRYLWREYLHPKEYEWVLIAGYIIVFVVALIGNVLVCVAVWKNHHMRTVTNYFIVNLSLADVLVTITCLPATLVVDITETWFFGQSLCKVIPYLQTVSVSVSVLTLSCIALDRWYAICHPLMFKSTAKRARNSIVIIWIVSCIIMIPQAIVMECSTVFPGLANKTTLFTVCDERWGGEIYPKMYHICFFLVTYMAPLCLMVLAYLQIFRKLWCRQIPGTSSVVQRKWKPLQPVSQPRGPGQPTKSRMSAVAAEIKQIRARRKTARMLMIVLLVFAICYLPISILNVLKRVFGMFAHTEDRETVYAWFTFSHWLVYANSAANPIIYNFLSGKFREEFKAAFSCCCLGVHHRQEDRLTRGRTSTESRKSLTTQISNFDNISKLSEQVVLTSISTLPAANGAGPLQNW
- Experiment notes: In vitro assay: intracellular calcium measurements (FLIPR), antagonistic activity
- Assay context: CHO cells expressing human orexin-2 receptor, orexin-A agonist, geometric mean, read-out: IC50 Ox2
Assay metric: IC50 (nM)

// below: answered compounds
{"columns": ["Compound", "Endpoint value"],
 "data": [
  ["Cc1ccc(-n2nccn2)c(C(=O)N2CC[C@H](C)[C@H]2c2nc3cc(Cl)c(C)cc3[nH]2)c1", 156],
  ["Cc1nc(C(=O)N2CCCC2c2nc3c(F)cccc3[nH]2)c(-c2cccc(Cl)c2)s1 (stereo not shown)", 769],
  ["C=C1C[C@@H](c2nc3cc(OC)ccc3[nH]2)N(C(=O)c2ccccc2-c2nc(C)no2)C1", 49],
  ["Cc1c(Cl)ccc2[nH]c([C@]3(C)CCCN3C(=O)c3nc(-c4ccccc4F)sc3-c3ccc(F)cc3)nc12", 263],
  ["COc1ccc2[nH]c([C@]3(C)CCCN3C(=O)c3cc(C)ccc3-n3nccn3)nc2c1", 46]
]}

1. C=C1C[C@@H](c2nc3cc(C)c(C)cc3[nH]2)N(C(=O)c2nc(C)ccc2-n2nccn2)C1
2. CO[C@@H]1C[C@@H](c2nc3ccc(Cl)c(C)c3[nH]2)N(C(=O)c2ccccc2-c2ccc(F)c(C)c2)C1
Select one. Lower IC50: 1 or 2 // return label of chosen record
2
(2: 7 nM, 1: 13 nM)

---

- Assayed system: human orexin-2 receptor (Homo sapiens (Human))
- Experiment notes: In vitro assay: intracellular calcium measurements (FLIPR), antagonistic activity
- Assay context: CHO cells expressing human orexin-2 receptor, orexin-A agonist, geometric mean, read-out: IC50 Ox2
Assay metric: IC50 (nM)

P. Cc1c(Cl)ccc2[nH]c([C@]3(C)CCCN3C(=O)c3nc(-c4cccc(Cl)c4)sc3-c3ccc(F)cc3)nc12
Q. CSc1ccc2nc([C@@H]3CCCN3C(=O)c3cc(C(F)(F)F)ccc3-n3nccn3)[nH]c2c1
Thinking about recorded IC50 values, which is higher, P or Q ? // return label of chosen record
P
(P: 329 nM, Q: 110 nM)

P. COc1cc2nc([C@]3(C)CCCN3C(=O)c3cc(C)ccc3-c3ncccn3)[nH]c2cc1OC
Q. C=C1C[C@@H](c2nc3ccc(Cl)c(C)c3[nH]2)N(C(=O)c2cc(OC)ccc2-n2nccn2)C1
Select one. Lower IC50: P or Q // return label of chosen record
Q
(Q: 0.5 nM, P: 16 nM)

---

- Assayed system: human orexin-2 receptor (Homo sapiens (Human))
- Experiment notes: In vitro assay: intracellular calcium measurements (FLIPR), antagonistic activity
- Assay context: CHO cells expressing human orexin-2 receptor, orexin-A agonist, geometric mean, read-out: IC50 Ox2
pIC50: −log10 of the molar value.
Assay metric: pIC50

// below: answered compounds
{"columns": ["Compound", "pIC50"],
 "data": [
  ["Cc1nc(C(=O)N2CC[C@H](C)[C@H]2c2nc3cc(F)c(F)cc3[nH]2)c(-c2cccc(Cl)c2)s1", 5.31],
  ["C=C1CN(C(=O)c2nc(C)sc2-c2ccc(C)c(C)c2)C(C)(c2nc3cc(OC)ccc3[nH]2)C1 (racemic)", 7.12],
  ["C=C1CC(c2nc3cc(Cl)c(C(F)(F)F)cc3[nH]2)N(C(=O)c2cc(C)sc2-c2ccc(C)c(C)c2)C1 (stereo not shown)", 6.68],
  ["CSc1ccc2nc([C@@H]3CCCN3C(=O)c3nccnc3-c3cc(C)cc(F)c3)[nH]c2c1", 6.96],
  ["Cc1nc(C(=O)N2CCCC2c2nc3c(CO)cccc3[nH]2)c(-c2ccccc2)s1 (stereo not shown)", 6.48]
]}

I. COCCn1c([C@]2(C)CCCN2C(=O)c2cc(C)ccc2-c2cccc(F)c2)nc2cc(C)c(C)cc21
II. Cc1ccc(-c2ncccn2)c(C(=O)N2CCC[C@@]2(C)c2nc3c(C)c(Cl)ccc3[nH]2)c1
Thinking about recorded pIC50 values, which is higher, I or II ? // return label of chosen record
II
(II: 8.40, I: 6.94)
